System: Ehrlich tumour cells (murine mammary adenocarcinoma)
Experiment: Effect of isomers and BLAS on in vivo tumour growth, Ehrlich tumours (Example 9)
Design: species or system Balb/c mice
Conditions: day 31 after tumour inoculation; 260 ng/mouse i.p. days 6, 7 and 14
Measurement Kind: Tumour volume, overall values (Median) (mm^3)
Quick reminder: number only, in mm^3, skip the unit.

The examples below pair each entry with its known result.
Compound: Br.N[C@@]1(C[n+]2ccccc2)C[C@H](C(=O)O)NC1=O.[Br-] (single isomer, unassigned; isomer 2) [isomer 2]
Tumour volume, overall values (Median), mm^3: 135

Compound: Br.N[C@]1(C[n+]2ccccc2)C[C@@H](C(=O)O)NC1=O.[Br-] (single isomer, unassigned; isomer 3) [isomer 3]
Tumour volume, overall values (Median), mm^3: 100.5

Compound: Br.N[C@]1(C[n+]2ccccc2)C[C@H](C(=O)O)NC1=O.[Br-] (single isomer, unassigned; isomer 4) [isomer 4]
Tumour volume, overall values (Median), mm^3: 157.75

Now let's try a different one.
What is its Tumour volume, overall values (Median) for Ehrlich tumour cells (murine mammary adenocarcinoma)? Entry: Br.N[C@@]1(C[n+]2ccccc2)C[C@@H](C(=O)O)NC1=O.[Br-] (single isomer, unassigned; isomer 1) [isomer 1] 147.75

----------
# reported Tumour surface, overall values (Median); entries follow
Test system: Ehrlich tumour cells (murine mammary adenocarcinoma)
Test: Effect of isomers and BLAS on in vivo tumour growth, Ehrlich tumours (Example 9)
Set-up: species or system Balb/c mice
Conditions: day 38 after tumour inoculation; 260 ng/mouse i.p. days 6, 7 and 14
// units = mm^2; emit number, no label

Compound: Br.N[C@]1(C[n+]2ccccc2)C[C@H](C(=O)O)NC1=O.[Br-] (single isomer, unassigned; isomer 4) [isomer 4]
Measurement Kind: Tumour surface, overall values (Median)
Quantitative Readout: 68
//
Compound: Br.N[C@]1(C[n+]2ccccc2)C[C@@H](C(=O)O)NC1=O.[Br-] (single isomer, unassigned; isomer 3) [isomer 3]
Measurement Kind: Tumour surface, overall values (Median)
Quantitative Readout: 49.5
//
Compound: Br.N[C@@]1(C[n+]2ccccc2)C[C@@H](C(=O)O)NC1=O.[Br-] (single isomer, unassigned; isomer 1) [isomer 1]
Measurement Kind: Tumour surface, overall values (Median)
Quantitative Readout: 53

Let's switch to this compound now.
Field: Tumour surface, overall values (Median) (Ehrlich tumour cells (murine mammary adenocarcinoma)). Entry: Br.N[C@@]1(C[n+]2ccccc2)C[C@H](C(=O)O)NC1=O.[Br-] (single isomer, unassigned; isomer 2) [isomer 2] 71

----------
Test system: ASB XIV cells (pulmonary squamous cell carcinoma)
Test: Effect of isomers and BLAS on in vivo tumour growth, ASB XIV tumours (Example 8)
Design: species or system Balb/c mice
Conditions: day 29 after tumour inoculation; 260 ng/mouse i.p. days 6, 7 and 14
Listing: Tumour volume, overall values (Median) of selected compounds
Output spec: scalar in mm^3, unitless text.

Take a look at these entries with their results.
Compound: Br.N[C@@]1(C[n+]2ccccc2)C[C@H](C(=O)O)NC1=O.[Br-] (single isomer, unassigned; isomer 2) [isomer 2]
Experimental System: ASB XIV cells (pulmonary squamous cell carcinoma)
Measurement Kind: Tumour volume, overall values (Median)
Quantitative Readout: 864
--
Compound: Br.N[C@]1(C[n+]2ccccc2)C[C@H](C(=O)O)NC1=O.[Br-] (single isomer, unassigned; isomer 4) [isomer 4]
Experimental System: ASB XIV cells (pulmonary squamous cell carcinoma)
Measurement Kind: Tumour volume, overall values (Median)
Quantitative Readout: 364.5
--
Compound: Br.N[C@]1(C[n+]2ccccc2)C[C@@H](C(=O)O)NC1=O.[Br-] (single isomer, unassigned; isomer 3) [isomer 3]
Experimental System: ASB XIV cells (pulmonary squamous cell carcinoma)
Measurement Kind: Tumour volume, overall values (Median)
Quantitative Readout: 445.5

Now, please, on to the next compound.
Any idea what its Tumour volume, overall values (Median) is? The compound is Br.N[C@@]1(C[n+]2ccccc2)C[C@@H](C(=O)O)NC1=O.[Br-] (single isomer, unassigned; isomer 1) [isomer 1] 550

----------
Each item that follows carries a reported Tumour surface, overall values (Mean).
Test system: Ehrlich tumour cells (murine mammary adenocarcinoma)
Assay: Effect of isomers and BLAS on in vivo tumour growth, Ehrlich tumours (Example 9)
Set-up: species or system Balb/c mice
Details: day 8 after tumour inoculation; 260 ng/mouse i.p. days 6, 7 and 14
Entry rule: numbers only, all in mm^2.

Example results:
Molecule: Br.N[C@]1(C[n+]2ccccc2)C[C@H](C(=O)O)NC1=O.[Br-] (single isomer, unassigned; isomer 4) [isomer 4]
Tumour surface, overall values (Mean), mm^2: 3.37
--
Molecule: Br.N[C@]1(C[n+]2ccccc2)C[C@@H](C(=O)O)NC1=O.[Br-] (single isomer, unassigned; isomer 3) [isomer 3]
Tumour surface, overall values (Mean), mm^2: 3.62
--
Molecule: Br.N[C@@]1(C[n+]2ccccc2)C[C@@H](C(=O)O)NC1=O.[Br-] (single isomer, unassigned; isomer 1) [isomer 1]
Tumour surface, overall values (Mean), mm^2: 5.69

Next molecule, please.
Can you look up the measured Tumour surface, overall values (Mean) of Br.N[C@@]1(C[n+]2ccccc2)C[C@H](C(=O)O)NC1=O.[Br-] (single isomer, unassigned; isomer 2) [isomer 2] for me? 6.69

----------
Test system: Ehrlich tumour cells (murine mammary adenocarcinoma)
Experiment: Effect of isomers and BLAS on in vivo tumour growth, Ehrlich tumours (Example 9)
Parameters: species or system Balb/c mice
Conditions: day 13 after tumour inoculation; 260 ng/mouse i.p. days 6, 7 and 14
Measurement Kind: Tumour volume, overall values (Median) (mm^3)
Just the number in mm^3, nothing appended.

Please look up its Tumour volume, overall values (Median): Br.N[C@]1(C[n+]2ccccc2)C[C@@H](C(=O)O)NC1=O.[Br-] (single isomer, unassigned; isomer 3) [isomer 3] 13.5

Tumour volume, overall values (Median) lookup needed for Br.N[C@@]1(C[n+]2ccccc2)C[C@H](C(=O)O)NC1=O.[Br-] (single isomer, unassigned; isomer 2) [isomer 2] , thanks. 32

Find the recorded Tumour volume, overall values (Median) belonging to Br.N[C@@]1(C[n+]2ccccc2)C[C@@H](C(=O)O)NC1=O.[Br-] (single isomer, unassigned; isomer 1) [isomer 1] and report it. 32

Need Tumour volume, overall values (Median), item Br.N[C@]1(C[n+]2ccccc2)C[C@H](C(=O)O)NC1=O.[Br-] (single isomer, unassigned; isomer 4) [isomer 4] 22.75

----------
Recorded Tumour surface, overall values (Mean), one value per entry.
Test system: Ehrlich tumour cells (murine mammary adenocarcinoma)
Assay: Effect of isomers and BLAS on in vivo tumour growth, Ehrlich tumours (Example 9)
Design: species or system Balb/c mice
Conditions: day 35 after tumour inoculation; 260 ng/mouse i.p. days 6, 7 and 14

Give its Tumour surface, overall values (Mean) value. Item: Br.N[C@@]1(C[n+]2ccccc2)C[C@@H](C(=O)O)NC1=O.[Br-] (single isomer, unassigned; isomer 1) [isomer 1] 68.87 mm^2

So what does the record say about Tumour surface, overall values (Mean) for Br.N[C@@]1(C[n+]2ccccc2)C[C@H](C(=O)O)NC1=O.[Br-] (single isomer, unassigned; isomer 2) [isomer 2] ? 60.25 mm^2

Give the measured Tumour surface, overall values (Mean) of Br.N[C@]1(C[n+]2ccccc2)C[C@H](C(=O)O)NC1=O.[Br-] (single isomer, unassigned; isomer 4) [isomer 4] . 76.31 mm^2

Name the reported Tumour surface, overall values (Mean) value associated with the molecule Br.N[C@]1(C[n+]2ccccc2)C[C@@H](C(=O)O)NC1=O.[Br-] (single isomer, unassigned; isomer 3) [isomer 3] 66 mm^2

----------
Test system: Ehrlich tumour cells (murine mammary adenocarcinoma)
Assay: Effect of isomers and BLAS on in vivo tumour growth, Ehrlich tumours (Example 9)
Design: species or system Balb/c mice
Conditions: day 8 after tumour inoculation; 260 ng/mouse i.p. days 6, 7 and 14
Measurement Kind: Tumour volume, overall values (Median) (mm^3)
Numeric only. Scale: mm^3

Query (molecule): Br.N[C@@]1(C[n+]2ccccc2)C[C@@H](C(=O)O)NC1=O.[Br-] (single isomer, unassigned; isomer 1) [isomer 1] ; field requested: Tumour volume, overall values (Median) 2

Bench note: what Tumour volume, overall values (Median) did Br.N[C@@]1(C[n+]2ccccc2)C[C@H](C(=O)O)NC1=O.[Br-] (single isomer, unassigned; isomer 2) [isomer 2] show? 4

// Tumour volume, overall values (Median) lookup, key: Br.N[C@]1(C[n+]2ccccc2)C[C@@H](C(=O)O)NC1=O.[Br-] (single isomer, unassigned; isomer 3) [isomer 3] 0

For Br.N[C@]1(C[n+]2ccccc2)C[C@H](C(=O)O)NC1=O.[Br-] (single isomer, unassigned; isomer 4) [isomer 4] , what is its reported Tumour volume, overall values (Median)? 0

----------
Each record here notes measured Tumour volume, overall values (Median).
Test system: Ehrlich tumour cells (murine mammary adenocarcinoma)
Experiment: Effect of isomers and BLAS on in vivo tumour growth, Ehrlich tumours (Example 9)
Design: species or system Balb/c mice
Conditions: day 35 after tumour inoculation; 260 ng/mouse i.p. days 6, 7 and 14
Excerpt: This assay was made in order to compare the effect of each stereoisomer on in vivo tumour growth in mice with the effect of the mixture of all of them challenged with Ehlrich tumours. The same products, equipment, reagents, doses, vehicle and route of administration as in example 8 were used. […] Mice were observed daily and the tumour size recorded twice a week. […] Results were expressed as single values and/or as the mean±SD or median from each experimental group. […]
Give just the number in mm^3; leave the unit off.

Please review the following examples before continuing.
Compound: Br.N[C@]1(C[n+]2ccccc2)C[C@H](C(=O)O)NC1=O.[Br-] (single isomer, unassigned; isomer 4) [isomer 4]
Scale Unit: mm^3
Tumour volume, overall values (Median): 183.75
//
Compound: Br.N[C@@]1(C[n+]2ccccc2)C[C@H](C(=O)O)NC1=O.[Br-] (single isomer, unassigned; isomer 2) [isomer 2]
Scale Unit: mm^3
Tumour volume, overall values (Median): 153

I would be grateful if you could share the reported Tumour volume, overall values (Median) for Br.N[C@@]1(C[n+]2ccccc2)C[C@@H](C(=O)O)NC1=O.[Br-] (single isomer, unassigned; isomer 1) [isomer 1] . 173.25

Which Tumour volume, overall values (Median) value belongs to Br.N[C@]1(C[n+]2ccccc2)C[C@@H](C(=O)O)NC1=O.[Br-] (single isomer, unassigned; isomer 3) [isomer 3] ? 135.5
